System: Mus musculus
Test: Toxicity in Swiss albino mouse assessed as ataxia at 100 mg/kg, sc measured up to 20 mins
Assay type: organism-based
Design: dose 100 mg/kg, route subcutaneous
Experimental Setup: in vivo
Form field: Activity (one value per entry).

>  <Molecule>
Cc1cccc(C)c1NC(=O)C(C)N (configuration not stated) [TOCAINIDE]

>  <Activity / %>
10

$$$$
>  <Molecule>
CCC(N)C(=O)N(CC)c1c(C)cccc1C.Cl (configuration not stated)

>  <Activity / %>
100

$$$$
>  <Molecule>
Cc1cccc(C)c1NC(=O)CN [GLYCINEXYLIDIDE]

>  <Activity / %>
0

$$$$
>  <Molecule>
CCCCOc1cc(C)c(N(C)C(=O)CN)c(C)c1.O=C(O)C(=O)O

>  <Activity / %>
0

$$$$
>  <Molecule>
CCCOc1cc(C)c(N(CC)C(=O)CN)c(C)c1.O=C(O)C(=O)O

>  <Activity / %>
0

$$$$
>  <Molecule>
CCN(CC)CC(=O)Nc1c(C)cccc1C

>  <Activity / %>
100

$$$$
>  <Molecule>
CCCOc1cc(C)c(N(C)C(=O)CN)c(C)c1.O=C(O)C(=O)O

>  <Activity / %>
20

$$$$

These data points were gathered from ChEMBL document CHEMBL3244116.
